- experimentalSystem: human PAD4 (hPAD4) (Homo sapiens (Human), UniProt Q9UM07)
- Sequence (Q9UM07 whole entry): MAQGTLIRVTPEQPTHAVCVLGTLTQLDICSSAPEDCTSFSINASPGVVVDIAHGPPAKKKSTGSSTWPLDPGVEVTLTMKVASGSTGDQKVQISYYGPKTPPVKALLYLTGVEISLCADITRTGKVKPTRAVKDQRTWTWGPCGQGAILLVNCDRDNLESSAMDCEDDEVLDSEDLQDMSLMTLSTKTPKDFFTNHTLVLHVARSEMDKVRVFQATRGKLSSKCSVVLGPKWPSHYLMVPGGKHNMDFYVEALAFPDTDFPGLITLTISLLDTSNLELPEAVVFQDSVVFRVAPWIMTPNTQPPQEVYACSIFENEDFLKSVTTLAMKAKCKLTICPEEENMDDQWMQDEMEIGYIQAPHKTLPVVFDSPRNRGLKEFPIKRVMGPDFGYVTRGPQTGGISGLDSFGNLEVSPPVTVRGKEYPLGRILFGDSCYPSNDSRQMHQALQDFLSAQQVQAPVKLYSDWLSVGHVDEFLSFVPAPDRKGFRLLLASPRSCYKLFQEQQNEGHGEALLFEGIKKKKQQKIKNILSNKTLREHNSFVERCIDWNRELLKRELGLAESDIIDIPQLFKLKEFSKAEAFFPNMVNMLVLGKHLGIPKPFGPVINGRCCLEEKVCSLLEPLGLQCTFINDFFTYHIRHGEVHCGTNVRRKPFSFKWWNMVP
- assay: RFMS Human PAD4 Functional Assay 1
- measurementConditions: RFMS assay 1; 5 nM hPAD4, 250 μM BAEE substrate, 50 μM calcium, 37° C.
measuredQuantity: IC50 (nM)

// worked examples, IC50 included
>  <molecule>
COC1CCN(c2ccc3cc(-c4oc5cc(C(=O)N6CC7CCC6[C@@H]7N)ccc5c4C)n(CC4CC4)c3c2)CC1 (stereo partly drawn)

>  <unitsSymbol>
nM

>  <IC50>
30

$$$$
>  <molecule>
COc1cc(C(=O)N2CCC[C@@H](N)C2)cn2nc(-c3cc4cccc(C5CCN(C(C)=O)CC5)c4n3CC3CC3)c(C)c12

>  <unitsSymbol>
nM

>  <IC50>
90

$$$$
>  <molecule>
COCC(=O)N1CCC(c2cccc3cc(-c4nn5cc(C(=O)N6CCC[C@@H](N)C6)cc(F)c5c4C)n(CC4CC4)c23)CC1

>  <unitsSymbol>
nM

>  <IC50>
40

$$$$
>  <molecule>
Cc1c(-c2cc3ccc(-c4ccc(C(N)=O)c(Cl)c4)cc3n2CC2CC2)oc2cc(C(=O)N3CC4CCC3[C@@H]4N)ccc12 (stereo partly drawn)

>  <unitsSymbol>
nM

>  <IC50>
88

$$$$

a = Cc1c(-c2cc3ccc(-c4cccc5[nH]nc(F)c45)cc3n2CC2CC2)nn2cc(C(=O)N3CC4CCC3[C@@H]4N)ccc12 (stereo partly drawn)
b = COc1cc(C(=O)N2C[C@H](N)C[C@@H](F)C2)cn2nc(-c3cc4cccc(C5CCN(C(=O)C6CCCO6)CC5)c4n3CC3CC3)c(C)c12 (single isomer, unassigned) [Example 394]
c = COc1cc(C(=O)N2C[C@H](N)C[C@@H](F)C2)cn2nc(-c3cc4cccc(C5CN(C(=O)[C@@H](C)OC)C5)c4n3CC3CC3)c(C)c12
d = Cc1c(-c2cc3ccc(C(C)(C)O)cc3n2CC2CC2)nn2cc(C(=O)N3CC4CCC3[C@@H]4N)ccc12 (stereo partly drawn)
e = Cc1c(-c2cc3ccc(C4CC4)cc3n2CC2CC2)oc2cc(C(=O)N3CC4CCC3[C@@H]4N)ccc12 (stereo partly drawn)
// smallest IC50 at index 0, largest at the end Form field (ranking): labels in requested order.
b, d, a, c, e
(b: 10 nM, d: 36 nM, a: 70 nM, c: 260 nM, e: 1550 nM)

----------
- experimentalSystem: human PAD4 (hPAD4) (Homo sapiens (Human), UniProt Q9UM07)
- assay: RFMS Human PAD4 Functional Assay 1
- measurementConditions: RFMS assay 1; 5 nM hPAD4, 250 μM BAEE substrate, 50 μM calcium, 37° C.
measuredQuantity: IC50 (nM)

For orientation, consider the following solved cases.
>  <compound>
COc1cc(C(=O)N2CCC[C@@H](N)C2)cn2nc(-c3cc4cccc(OC[C@@H]5CCC(=O)N5)c4n3CC3CC3)c(C)c12

>  <recordedResult>
80

$$$$
>  <compound>
Cc1c(-c2cc3cccnc3n2CC2CC2)nn2cc(C(=O)N3C[C@H](N)C[C@@H](F)C3)ccc12

>  <recordedResult>
1610

$$$$
>  <compound>
COc1cc(C(=O)N2CC3CCC2[C@@H]3N)cc2oc(-c3cc4ccc(C5CC5)cc4n3CC3CC3)c(C)c12 (stereo partly shown)

>  <recordedResult>
173

$$$$

P = COc1cc(C(=O)N2CC3CCC2[C@@H]3N)cc2sc(-c3cc4ccc(-c5cccc(O)c5F)nc4n3CC3CC3)c(C)c12 (stereo partly shown)
Q = Cc1c(-c2cc3ccc(C(C)(C)O)nc3n2CC2CC2)nn2cc(C(=O)N3C[C@H](N)C[C@@H](F)C3)ccc12
Of P versus Q , which is the one with smaller reported IC50? Answer = label.
Q
(Q: 107 nM, P: 212 nM)

a = COc1cc(C(=O)N2CC3CCC2[C@@H]3N)cc2sc(-c3cc4ccc(-c5ccc(C(N)=O)c(Cl)c5)cc4n3CC3CC3)c(C)c12 (stereo partly shown)
b = CC(=O)N1CCC(c2cccc3cc(-c4nn5cc(C(=O)N6CC7CCC6[C@@H]7N)ccc5c4C)n(CC4CC4)c23)CC1 (stereo partly shown)
Thinking about recorded IC50 values, which is higher, a or b ? Please respond with the label that marks your chosen entry.
a
(a: 413 nM, b: 20 nM)
